Below, each entry is listed with its recorded Control Effects on Cucumber Downy Mildew (%).
Tested on: cucumber downy mildew
Experiment: In vivo pot determination, control effect on cucumber downy mildew
Conditions: 400 ppm, foliar spray, parallel comparison (Table 4)
Recorded endpoint: Control Effects on Cucumber Downy Mildew (%)

>>> print(df.to_string())
                                   molecule  u  numeric_result
0  N#CC(C#N)=NOCc1csc(-c2ccc(Cl)cc2)n1 [CK3, reference compound]  %               0
1  N#CC(C#N)=NOCc1csc(-c2ccccc2)n1 [CK2, reference compound]  %               0
2  N#CC(C#N)=NOCc1csc(NC(=O)c2ccc([N+](=O)[O-])c(F)c2)n1 [Compound 45]  %             100
3  N#CC(C#N)=NOCc1csc(NC(=O)c2ccccc2C(F)(F)F)n1 [Compound 20]  %             100
4  CC=CC(=O)Nc1nc(CON=C(C#N)C#N)cs1 [Compound 117]  %             100
5  N#CC(C#N)=NOCc1cnc(Cl)s1 [CK1, reference compound]  %               0

---

Tested on: melon bacterial fruit blotch
Assay: Control effect on melon bacterial fruit blotch (seed soak, greenhouse)
Assay type: in vivo
Conditions: 400 mg/L, seeds soaked in bacteria plus compound solution
Recorded endpoint: control effects on melon bacterial fruit blotch (%)

                               given_smiles                  study_target  u  numeric_result
0            CCC(=O)Nc1nc(CON=C(C#N)C#N)cs1  melon bacterial fruit blotch  %             100
1  N#CC(C#N)=NOCc1csc(NC(=O)c2ccc(F)c(C(F)(F)F)c2)n1  melon bacterial fruit blotch  %             100
2  CC(C)(C)OC(=O)Nc1nc(CON=C(C#N)C(N)=O)cs1  melon bacterial fruit blotch  %             100
3  N#CC(C#N)=NOCc1csc(NC(=O)c2ccc(Cl)cc2Cl)n1  melon bacterial fruit blotch  %             100
4  CC(=NNc1nc(CON=C(C#N)C#N)cs1)c1ccc(F)cc1  melon bacterial fruit blotch  %             100
